Hey, just so you know, these numbers are from the supplement of paper PMC6965134.

procedure.text: TIMS collisional cross section (CCS, N2) of the lipid ion; higher = larger ion cross section
condition.details: sample type: plasma; ionization mode: positive; one isomer drawn
readout.type: TIMS collisional cross section (Å²)

{"molecule": "CCCCC/C=C\\C/C=C\\CCCCCCCCCCCC(=O)OC[C@@H](COC(=O)CCCCCCC/C=C\\CCCCCCCC)OC(=O)CCCCCCC/C=C\\C/C=C\\CCCCC [TG 18:1_18:2_22:2] (ion (formula + adduct): [C61H108O6+NH4] 1+)", "readout.type": "TIMS collisional cross section", "recorded.number": 335.8}
{"molecule": "CCCCCCCC/C=C\\CCCCCCCC(=O)O[C@H](COC(=O)CCCCCCCCCCCCCCCCC)COP(=O)(O)OCCN [PE 18:0@_18:1] (ion (formula + adduct): [C41H80NO8P+H] 1+)", "readout.type": "TIMS collisional cross section", "recorded.number": 282.1}
{"molecule": "CCCC/C=C\\CCCCCCCC(=O)O[C@@H](COC(=O)CCCCCCC/C=C\\C/C=C\\CCCCC)COC(=O)CCCCCCCCCCC [TG 12:0_14:1_18:2] (ion (formula + adduct): [C47H84O6+NH4] 1+)", "readout.type": "TIMS collisional cross section", "recorded.number": 293.8}
{"molecule": "CCCCCCCCCCCCCCCC(=O)OC[C@@H](COC(=O)CCCCCCCCCCCCC)OC(=O)CCCCCCCCCCCCC [TG 14:0_14:0_16:0] (ion (formula + adduct): [C47H90O6+NH4] 1+)", "readout.type": "TIMS collisional cross section", "recorded.number": 301.3}
{"molecule": "CCCCC/C=C\\C/C=C\\C/C=C\\CCCCCCC(=O)O[C@H](CO/C=C\\CCCCCCCCCCCCCC)COP(=O)(O)OCCN [PE P- 16:0@_20:3] (ion (formula + adduct): [C41H76NO7P+H] 1+)", "readout.type": "TIMS collisional cross section", "recorded.number": 276.2}
